# system.name: Human recombinant FAP (Homo sapiens, UniProt Q12884)
# Sequence (Q12884 1-760): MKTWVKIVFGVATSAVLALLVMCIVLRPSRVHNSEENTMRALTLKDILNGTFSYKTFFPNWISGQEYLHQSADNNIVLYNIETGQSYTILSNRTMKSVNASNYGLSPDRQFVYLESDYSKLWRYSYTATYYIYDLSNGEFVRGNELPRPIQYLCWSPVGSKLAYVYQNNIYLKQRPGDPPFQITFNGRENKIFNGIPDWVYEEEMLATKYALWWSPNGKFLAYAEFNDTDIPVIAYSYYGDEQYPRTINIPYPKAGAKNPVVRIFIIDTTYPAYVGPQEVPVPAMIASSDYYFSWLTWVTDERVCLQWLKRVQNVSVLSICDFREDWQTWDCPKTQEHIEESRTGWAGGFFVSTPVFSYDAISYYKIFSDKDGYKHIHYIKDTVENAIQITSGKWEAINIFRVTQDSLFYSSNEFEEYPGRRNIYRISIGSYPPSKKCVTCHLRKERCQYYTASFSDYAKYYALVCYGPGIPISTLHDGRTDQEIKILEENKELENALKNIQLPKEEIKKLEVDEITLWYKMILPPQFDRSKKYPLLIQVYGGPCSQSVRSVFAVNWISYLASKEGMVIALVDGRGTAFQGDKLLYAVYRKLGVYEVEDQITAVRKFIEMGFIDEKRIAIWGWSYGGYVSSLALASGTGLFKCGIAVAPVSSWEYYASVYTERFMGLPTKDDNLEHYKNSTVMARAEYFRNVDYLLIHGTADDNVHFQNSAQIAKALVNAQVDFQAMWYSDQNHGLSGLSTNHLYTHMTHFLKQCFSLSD
# method: Surface plasmon resonance (Biacore) assay
Numbered stars: 1 amine (or outer) side, 2 acyl side, 3 side chain; on linkers, the order of the positions; unused ones are H or OH. Bridge positions count the residues as written; N and C are the ends. Square brackets hold non-standard residues; d marks the D form. Peptide text beside a SMILES is read from it. * marks the point of attachment. X19 = NC(=O)[C@H](CCCCNC(=O)CN1CCN(CC(=O)O)CCN(CC(=O)O)CCN(CC(=O)O)CC1)NC(=O)CCC(=O)NCCCOCCOCCNCCCN*; NH(CH2)5NHDOTA = O=C(O)CN1CCN(CC(=O)O)CCN(CC(=O)NCCCCCN*)CCN(CC(=O)O)CC1; X2 = O=C(O)CN1CCN(CC(=O)O)CCN(CC(=O)NCCCOCCOCCOCCCN*)CCN(CC(=O)O)CC1; mXylylene = c1cc(C[*:1])cc(C[*:2])c1; Suc = O=C(CCC(=O)[*:2])[*:1]; Nle = CCCC[C@H](N)C(=O)O; Hexanoyl = CCCCCC(=O)*; GABA = NCCCC(=O)O
recorded.metric: Kd

INSERT INTO measurements (molecule, recorded_metric, result) VALUES
  ('CCCCCC(=O)N[C@H]1CSCc2cccc(c2)CSC[C@@H](C(=O)N[C@@H](CCCCNC(=O)CCC(=O)NCCCOCCOCCOCCCNC(=O)CN2CCN(CC(=O)O)CCN(CC(=O)O)CCN(CC(=O)O)CC2)CC(=O)O)NC(=O)[C@H](Cc2ccccc2)NC(=O)[C@H](CCC(N)=O)NC(=O)[C@H]([C@@H](C)O)NC(=O)[C@@H]2CCCN2C(=O)[C@@H]2CCCN2C1=O [3BP-3489]', 'Kd', '< 10 nM'),
  ('CCCCCC(=O)N[C@H]1CSCc2cccc(c2)CSC[C@@H](C(=O)N[C@@H](CC(=O)O)C(=O)NCCCNCCOCCOCCCNC(=O)CCC(=O)N[C@@H](CCCCNC(=O)CN2CCN(CC(=O)O)CCN(CC(=O)O)CCN(CC(=O)O)CC2)C(N)=O)NC(=O)[C@H](Cc2ccccc2)NC(=O)[C@H](CCC(=O)O)NC(=O)[C@H]([C@@H](C)O)NC(=O)[C@@H]2CCCN2C(=O)[C@@H]2CCCN2C1=O [3BP-3396] (Hexanoyl-CPPTEFCD-X19; linker 1-7 via mXylylene)', 'Kd', '< 10 nM'),
  ('CCCCCC(=O)N[C@H]1CSCc2cccc(c2)CSC[C@@H](C(N)=O)NC(=O)[C@H](Cc2ccccc2)NC(=O)[C@H](CCC(N)=O)NC(=O)[C@H]([C@@H](C)O)NC(=O)[C@@H]2CCCN2C(=O)[C@@H]2CCCN2C1=O [3BP-3349]', 'Kd', '< 10 nM'),
  ('CCCC[C@H](NC(=O)CCC(=O)NCCCOCCOCCOCCCNC(=O)CN1CCN(CC(=O)O)CCN(CC(=O)O)CCN(CC(=O)O)CC1)C(=O)N[C@H]1CSCc2cccc(c2)CSC[C@@H](C(N)=O)NC(=O)[C@H](Cc2ccccc2)NC(=O)[C@H](CCC(=O)O)NC(=O)[C@H]([C@@H](C)O)NC(=O)[C@@H]2CCCN2C(=O)[C@@H]2CCCN2C1=O [3BP-3319] ({X2-Suc}-[Nle]CPPTEFC-NH2; linker 2-8 via mXylylene)', 'Kd', '10 to 79.4 nM'),
  ('CCCCCC(=O)N[C@H]1CSCc2cccc(c2)CSC[C@@H](C(=O)N[C@@H](CC(=O)O)C(=O)NCCCCCNC(=O)CN2CCN(CC(=O)O)CCN(CC(=O)O)CCN(CC(=O)O)CC2)NC(=O)[C@H](Cc2ccccc2)NC(=O)[C@H](CCC(N)=O)NC(=O)[C@H]([C@@H](C)O)NC(=O)[C@@H]2CCCN2C(=O)[C@@H]2CCCN2C1=O [3BP-3403] (Hexanoyl-CPPTQFCD-{NH(CH2)5NHDOTA}; linker 1-7 via mXylylene)', 'Kd', '< 10 nM');

# context switch: different molecule, same Kd
Quick one: Kd for CCCCCC(=O)N[C@H]1CSCc2cccc(c2)CSC[C@@H](C(=O)N[C@@H](CC(=O)O)C(=O)NCCCC(=O)N[C@@H](CCCNC(=N)N)C(N)=O)NC(=O)[C@H](Cc2ccccc2)NC(=O)[C@H](CCC(=O)O)NC(=O)[C@H]([C@@H](C)O)NC(=O)[C@@H]2CCCN2C(=O)[C@@H]2CCCN2C1=O [3BP-3300] (Hexanoyl-CPPTEFCD[GABA]R-NH2; linker 1-7 via mXylylene) ?
< 10 nM

---

# system.name: Human recombinant FAP (Homo sapiens, UniProt Q12884)
# Sequence (Q12884 1-760): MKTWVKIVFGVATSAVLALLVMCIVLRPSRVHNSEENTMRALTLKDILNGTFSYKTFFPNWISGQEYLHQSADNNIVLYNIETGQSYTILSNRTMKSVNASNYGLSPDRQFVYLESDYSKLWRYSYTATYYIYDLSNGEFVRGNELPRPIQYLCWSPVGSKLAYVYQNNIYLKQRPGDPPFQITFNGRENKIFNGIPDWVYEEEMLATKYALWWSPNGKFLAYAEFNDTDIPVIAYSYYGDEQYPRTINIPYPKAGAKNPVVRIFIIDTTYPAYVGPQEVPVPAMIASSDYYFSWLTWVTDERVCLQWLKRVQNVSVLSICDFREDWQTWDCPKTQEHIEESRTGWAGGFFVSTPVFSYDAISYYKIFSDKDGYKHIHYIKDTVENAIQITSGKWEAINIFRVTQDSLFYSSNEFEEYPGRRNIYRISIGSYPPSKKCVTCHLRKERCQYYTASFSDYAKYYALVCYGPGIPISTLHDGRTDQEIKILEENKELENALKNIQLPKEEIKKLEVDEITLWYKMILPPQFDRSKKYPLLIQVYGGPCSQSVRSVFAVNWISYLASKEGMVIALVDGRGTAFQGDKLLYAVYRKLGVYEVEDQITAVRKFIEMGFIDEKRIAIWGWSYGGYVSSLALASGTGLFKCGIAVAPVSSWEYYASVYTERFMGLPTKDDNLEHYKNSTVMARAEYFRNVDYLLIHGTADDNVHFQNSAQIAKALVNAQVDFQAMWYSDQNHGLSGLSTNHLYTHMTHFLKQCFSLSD
# method: FRET-based FAP protease activity assay
# Assay type: biochemical
# Parameters: purchased R&D systems 3715-SE
# conditions.used: pIC50 Category (Activity), recombinant human FAP, FRET substrate, 37° C.
Numbered stars: 1 amine (or outer) side, 2 acyl side, 3 side chain; on linkers, the order of the positions; unused ones are H or OH. Bridge positions count the residues as written; N and C are the ends. Peptide text beside a SMILES is read from it. * marks the point of attachment. mXylylene = c1cc(C[*:1])cc(C[*:2])c1; Hexanoyl = CCCCCC(=O)*
recorded.metric: IC50

Recorded IC50, per entry:
INSERT INTO measurements (compound, result) VALUES
  ('C[C@@H](O)[C@@H]1NC(=O)[C@@H]2CCCN2C(=O)[C@@H]2CCCN2C(=O)[C@@H](NC(=O)[C@H](CCCCNC(N)=O)NC(=O)CCC(=O)NCCCOCCOCCOCCCNC(=O)CN2CCN(CC(=O)O)CCN(CC(=O)O)CCN(CC(=O)O)CC2)CSCc2cccc(c2)CSC[C@@H](C(=O)NCCC(=O)O)NC(=O)[C@H](Cc2ccccc2)NC(=O)[C@H](CCC(N)=O)NC1=O [3BP-3399]', '> 1000 nM'),
  ('CCCCCC[C@H](NC(=O)CCC(=O)NCCCOCCOCCOCCCNC(=O)CN1CCN(CC(=O)O)CCN(CC(=O)O)CCN(CC(=O)O)CC1)C(=O)N[C@H]1CSCc2cccc(c2)CSC[C@@H](C(=O)NCCC(=O)O)NC(=O)[C@H](Cc2ccccc2)NC(=O)[C@H](CCC(N)=O)NC(=O)[C@H]([C@@H](C)O)NC(=O)[C@@H]2CCCN2C(=O)[C@@H]2CCCN2C1=O [3BP-3400]', '10 to 79.4 nM');

Quick one: IC50 for CCCCCC(=O)N[C@H]1CSCc2cccc(c2)CSC[C@@H](C(=O)N[C@@H](CC(=O)O)C(N)=O)NC(=O)[C@H](Cc2ccccc2)NC(=O)[C@H](CCC(=O)O)NC(=O)[C@H]([C@@H](C)O)NC(=O)[C@@H]2CCCN2C(=O)[C@@H]2CCCN2C1=O [3BP-3288] (Hexanoyl-CPPTEFCD-NH2; linker 1-7 via mXylylene) ?
< 10 nM
